Entry source: paper PMC8330742

System: OVCAR-8
Assay: NCI-60 SRB screen;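 also: half-maximal inhibitory concentration read as cell viability unlike GI50 net growth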
Assay type: cell-based, human
Conditions: Homo sapiens; OVCAR-8; five dose
pIC50: −log10 of the molar value.
value_kind: pIC50

compound: N#CC1C(=O)NC(c2ccccc2[N+](=O)[O-])c2sc3c(F)cccc3c21 (stereo not shown)
recorded_result: 4.69

====

Entries and their measured inhibition at 10 µM follow.
Test system: MALME-3M
Assay: NCI-60 SRB screen
Assay type: cell-based, human
Conditions: Homo sapiens, single dose 10^−5 M, read-out: Growth inhibition (%)

molecule: COc1ccc(C2NC(=O)C(C#N)c3c2sc2c(F)cccc32)cc1 (centres unmarked) [Compound 5b]
unit_name: %
inhibition at 10 µM: 52.9
--
molecule: O=C1C(=Cc2ccccc2[N+](=O)[O-])Sc2c(F)cccc21 [Compound 2c]
unit_name: %
inhibition at 10 µM: 12.6
--
molecule: N#CC1C(=O)NC(c2cccc([N+](=O)[O-])c2)c2sc3c(F)cccc3c21 (centres unmarked) [Compound 5d]
unit_name: %
inhibition at 10 µM: -12.1
--
molecule: O=C1NC(c2cccc([N+](=O)[O-])c2)c2sc3c(F)cccc3c2C1Cl (centres unmarked) [Compound 4d]
unit_name: %
inhibition at 10 µM: 4.62
--
molecule: O=C1NC(c2cccc([N+](=O)[O-])c2)c2sc3c(F)cccc3c2C1N1CCCCC1 (centres unmarked) [Compound 6c]
unit_name: %
inhibition at 10 µM: -1.85
--
molecule: O=C1NC(c2cccc([N+](=O)[O-])c2)c2sc3c(F)cccc3c2C1N1CCOCC1 (centres unmarked) [Compound 6b]
unit_name: %
inhibition at 10 µM: 0.18
--
molecule: O=[N+]([O-])c1cccc(C2NC(Cl)=C(Cl)c3c2sc2c(F)cccc32)c1 (centres unmarked) [Compound 7a]
unit_name: %
inhibition at 10 µM: -2.96
--
molecule: COc1ccc(C2NC(=O)C(C#N)c3c2sc2c(F)cccc32)c(OC)c1 (centres unmarked) [Compound 5a]
unit_name: %
inhibition at 10 µM: 60.3
--
molecule: N#CC1C(=O)NC(c2ccccc2[N+](=O)[O-])c2sc3c(F)cccc3c21 (centres unmarked) [Compound 5c]
unit_name: %
inhibition at 10 µM: 25.3
--
molecule: COc1ccc(C2NC(=O)C(Cl)c3c2sc2c(F)cccc32)cc1 (centres unmarked) [Compound 4b]
unit_name: %
inhibition at 10 µM: 10.8
--
molecule: COc1ccc(C2NC(=O)C(Cl)c3c2sc2c(F)cccc32)c(OC)c1 (centres unmarked) [Compound 4a]
unit_name: %
inhibition at 10 µM: 9.21
--
molecule: CCN1CCN(C2C(=O)NC(c3cccc([N+](=O)[O-])c3)c3sc4c(F)cccc4c32)CC1 (centres unmarked) [Compound 6a]
unit_name: %
inhibition at 10 µM: -3.44
--
molecule: COc1ccc(C=C2Sc3c(F)cccc3C2=O)c(OC)c1 [Compound 2a]
unit_name: %
inhibition at 10 µM: 4.19
--
molecule: O=C1NC(c2ccccc2[N+](=O)[O-])c2sc3c(F)cccc3c2C1Cl (centres unmarked) [Compound 4c]
unit_name: %
inhibition at 10 µM: 9.46

====

System: COLO 205
Assay: NCI-60 SRB screen
Type: cell-based, human
Conditions: Homo sapiens; single dose 10^−5 M; COLO 205, Colon cancer; read-out: Growth inhibition (%)
inhibition at 10 µM values by entry
value_kind: inhibition at 10 µM (%)

molecule: O=[N+]([O-])c1cccc(C2NC(N3CCCCC3)=C(Cl)c3c2sc2c(F)cccc32)c1 (centres unmarked)
value_kind: inhibition at 10 µM
unit_name: %
recorded_result: -12.7
//
molecule: N#CC1=C(Nc2ccccc2F)NC(c2cccc([N+](=O)[O-])c2)c2sc3c(F)cccc3c21 (centres unmarked)
value_kind: inhibition at 10 µM
unit_name: %
recorded_result: -13.3
//
molecule: O=[N+]([O-])c1cccc(C2NC(N3CCOCC3)=C(Cl)c3c2sc2c(F)cccc32)c1 (centres unmarked)
value_kind: inhibition at 10 µM
unit_name: %
recorded_result: -12.9
//
molecule: N#CC1=C(N2CCCCC2)NC(c2cccc([N+](=O)[O-])c2)c2sc3c(F)cccc3c21 (centres unmarked)
value_kind: inhibition at 10 µM
unit_name: %
recorded_result: -16.7
//
molecule: O=[N+]([O-])c1cccc(C2NC3=C(Nc4ccccc4N3)c3c2sc2c(F)cccc32)c1 (centres unmarked)
value_kind: inhibition at 10 µM
unit_name: %
recorded_result: -17.1
